- System: RARg:RXRa (NR concentration 270 nM, RXRa partner concentration 90 nM)
- assay_text: PBM binding z-score (relative to random genomic background probes); higher = stronger binding; sequences stand for … in GC…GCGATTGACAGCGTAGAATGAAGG
Please note: 1 applies when PBM binding z-score is 3 or greater, and 0 applies otherwise.

Reference set (4 entries):
{"columns": ["ordered_residues", "class"],
 "data": [
  ["AGAATGAGGTTATTAAGATGAGGGAATTGCGGTC", 0],
  ["ATCTCTAGGTAAAGTTCTGTGAAAGATCGATAGA", 0],
  ["AATACAGGGTCACTAGGGCAGAGTAGGTACGAAT", 1],
  ["CTCGAAAGGTCGTGCTCAGGTGAGAATACCAAAC", 1]
]}

Identify whether the reported PBM binding z-score of the following sequence is 3 or greater: TCATATAGGTAAAAGGTAAAAGTCGGTGTGGTAA
0

Identify whether the reported PBM binding z-score of the following sequence is 3 or greater: TCTAGTTGGTCAAAGGTCACACTCTCGAAATGCG
1

Identify whether the reported PBM binding z-score of the following sequence is 3 or greater: AGATTGAGGTTATTAAGATCAGGGAATTGCGGTC
0

Identify whether the reported PBM binding z-score of the following sequence is 3 or greater: TATCGGAGGACACGAAAGGTCAGAGCTCGACATC
1

Identify whether the reported PBM binding z-score of the following sequence is 3 or greater: ATATGGAGGTTACATCCGGGTCATTCAGGCTATG
1

Identify whether the reported PBM binding z-score of the following sequence is 3 or greater: CCGACTAGGGCAAGGTTACCATAACGCACAGCCA
0

Identify whether the reported PBM binding z-score of the following sequence is 3 or greater: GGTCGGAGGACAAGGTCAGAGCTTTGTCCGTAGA
1
